# Test system: glioblastoma stem cells (GSCs)
# experimentDescription: Dose response cell viability, CellTiter-Glo ATP-based assay, GSCs
# measurementParameters: Homo sapiens, 0 to 32 nM, 72 hours
parameter: EC50 (nM)
Give the value, in units of nM, as a plain number.

Exam item: Given "Cc1ccc(C(=O)N(CCCN)[C@@H](c2nc3cc(Cl)ccc3c(=O)n2Cc2ccccc2)C(C)C)cc1" , state its recorded EC50.
Marked response: 1.15
